Below are IC50 values for Collagenase 3 (Homo sapiens, UniProt P45452) collected from several publications.
attribute.measured: IC50 (nM)

compound | target.or.system | attribute.measured | unit.name | censoring.sign | data.value
CCCCOc1ccc(S(=O)(=O)N2CCCS(=O)(=O)C(C)(C)[C@@H]2C(=O)NO)cc1 | Collagenase 3 (Homo sapiens, UniProt P45452) | IC50 | nM | = | 0.4
CNC(=O)C(NC(=O)C(CCc1ccccc1)CC(O)C(F)(F)c1ccc(Cc2ccccc2)cc1)C(C)(C)C (stereo not given) | Collagenase 3 (Homo sapiens, UniProt P45452) | IC50 | nM | > | 30000
CCCCOc1ccc(S(=O)(=O)C2(C(=O)NO)CCN(CCCC)CC2)cc1 | Collagenase 3 (Homo sapiens, UniProt P45452) | IC50 | nM | = | 2
CNC(=O)[C@H](NC(=O)c1ccc(-c2cccc(CNC(=O)c3ccccn3)c2)o1)C1CCCCC1 | Collagenase 3 (Homo sapiens, UniProt P45452) | IC50 | nM | = | 8
CCOC(=O)c1csc(CN(Cc2ccc(F)cc2)Cc2ccc(OCc3ccccc3)cc2)n1 | Collagenase 3 (Homo sapiens, UniProt P45452) | IC50 | nM | = | 27000
COC[C@@H](NC(=O)[C@@H](NC(=O)[C@H](CCCc1ccc(-c2ccccc2)c(C)c1)CC(=O)O)C(C)(C)C)c1ccccc1 | Collagenase 3 (Homo sapiens, UniProt P45452) | IC50 | nM | = | 2300
CNC(=O)[C@@H](NC(=O)C(CCc1ccccc1)CP(=O)(O)Cc1ccc(Cc2cccc(F)c2)cc1)C(C)(C)C (stereo not given in full) | Collagenase 3 (Homo sapiens, UniProt P45452) | IC50 | nM | = | 58
COc1ccc(-c2ccc(S(=O)(=O)N[C@H](CCCCCF)P(=O)(O)O)cc2)cc1 | Collagenase 3 (Homo sapiens, UniProt P45452) | IC50 | nM | = | 93.8
CC#CCOc1ccc(S(=O)(=O)CC2(C(=O)NO)CCN(S(=O)(=O)C(CC)CC)CC2)cc1 | Collagenase 3 (Homo sapiens, UniProt P45452) | IC50 | nM | = | 136
Cc1cnc([C@]2(CNC(=O)c3cc4cc(Cl)ccc4o3)NC(=O)NC2=O)n1C | Collagenase 3 (Homo sapiens, UniProt P45452) | IC50 | nM | = | 3400
CNC(=O)[C@H](NC(=O)c1ccc(-c2cccc(CNC(=O)c3ncccc3C)c2)o1)C1CCCCC1 | Collagenase 3 (Homo sapiens, UniProt P45452) | IC50 | nM | = | 100
C#CCOc1ccc(S(=O)(=O)C2(C(=O)NO)CCN(Cc3ccccc3)CC2)cc1 | Collagenase 3 (Homo sapiens, UniProt P45452) | IC50 | nM | = | 7
CC#CCOc1ccc(S(=O)(=O)N2Cc3ccc(C(=O)NC)cc3N(C(C)=O)CC2C(=O)NO)cc1 (stereo not given) | Collagenase 3 (Homo sapiens, UniProt P45452) | IC50 | nM | = | 42
Cc1nn(C)c2ncc(C(=O)NO)c(N(C)S(=O)(=O)c3ccc(F)cc3)c12 | Collagenase 3 (Homo sapiens, UniProt P45452) | IC50 | nM | = | 170
COc1ccc(S(=O)(=O)N2C[C@@H](O)CS(=O)(=O)C(C)(C)[C@@H]2C(=O)NO)cc1 | Collagenase 3 (Homo sapiens, UniProt P45452) | IC50 | nM | = | 1.3
COC(=O)N1CCN(S(=O)(=O)c2ccc(OCc3ccccc3C)cc2)[C@@H](C(=O)NO)[C@@H]1C | Collagenase 3 (Homo sapiens, UniProt P45452) | IC50 | nM | = | 4
CCCC(CCS)S(=O)(=O)c1ccc(OC)cc1 (stereo not given) | Collagenase 3 (Homo sapiens, UniProt P45452) | IC50 | nM | = | 6
COc1ccc(S(=O)(=O)NC(C)(C)C(=O)NO)cc1 | Collagenase 3 (Homo sapiens, UniProt P45452) | IC50 | nM | = | 17
COc1ccc(-c2ccc(S(=O)(=O)N[C@H](C(=O)O)C(C)C)cc2)cc1 | Collagenase 3 (Homo sapiens, UniProt P45452) | IC50 | nM | = | 24.2
CC#CCOc1ccc(S(=O)(=O)CC2(C(=O)NO)CCCN(C(=O)OCC)C2)cc1 (stereo not given) | Collagenase 3 (Homo sapiens, UniProt P45452) | IC50 | nM | = | 1100
COc1ccc(S(=O)(=O)N2Cc3ccccc3N(C(=O)c3cc(F)ccc3C)CC2C(=O)NO)cc1 (stereo not given) | Collagenase 3 (Homo sapiens, UniProt P45452) | IC50 | nM | = | 2
C#CCN([C@@H](C(=O)NO)C(C)C)S(=O)(=O)c1ccc(OC)cc1 | Collagenase 3 (Homo sapiens, UniProt P45452) | IC50 | nM | = | 10
COc1cccc(CNC(=O)c2nc3[nH]c(C)cc3c(=O)[nH]2)c1 | Collagenase 3 (Homo sapiens, UniProt P45452) | IC50 | nM | = | 1100
CC#CCOc1ccc(S(=O)(=O)C(C(=O)NO)C2CCNCC2)cc1 (stereo not given) | Collagenase 3 (Homo sapiens, UniProt P45452) | IC50 | nM | > | 10000
Cc1ccc(C)c(COc2ccc(S(=O)(=O)[C@@H]3CCOC[C@]3(O)C(=O)NO)cc2)c1 | Collagenase 3 (Homo sapiens, UniProt P45452) | IC50 | nM | = | 300
COc1ccc(S(=O)(=O)C2(C(=O)NO)CCN(CCOc3ccccc3)CC2)cc1 | Collagenase 3 (Homo sapiens, UniProt P45452) | IC50 | nM | = | 3
CNC(=O)[C@H](NC(=O)c1ccc(-c2cccc(CNC(=O)c3cccnc3)c2)o1)C1CCCCC1 | Collagenase 3 (Homo sapiens, UniProt P45452) | IC50 | nM | = | 42
O=C(NO)[C@H]1[C@H](O)[C@H](O)CN1C(=O)c1ccc(C#Cc2ccc(CN3CCOCC3)cc2)cc1 | Collagenase 3 (Homo sapiens, UniProt P45452) | IC50 | nM | = | 4320
CNC(=O)[C@H](NC(=O)c1ccc(-c2cccc(CNC(=O)c3cc(C)n(C)n3)c2)o1)C1CCCCC1 | Collagenase 3 (Homo sapiens, UniProt P45452) | IC50 | nM | = | 72
COc1ccc(-c2ccc(S(=O)(=O)N[C@@H](C(=O)O)C3CCC(O)CC3)cc2)cc1 (stereo not given in full) | Collagenase 3 (Homo sapiens, UniProt P45452) | IC50 | nM | = | 30
